System: MLCK(h)
assay_name: Kinase Profiling Assay
Format: biochemical, human
stated_conditions: 100 μM
experimental_endpoint: % activity (%)
Entry rule: numbers only, all in %.

// solved cases for % activity follow
>>> measured_result("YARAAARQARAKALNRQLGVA [MMI-0200]")
103
>>> measured_result("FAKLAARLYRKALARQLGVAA [MMI-0300]")
2
>>> measured_result("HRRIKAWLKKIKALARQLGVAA [MMI-0500]")
0

The record that follows has no % activity shown yet.
Form field - read-out: % activity; system: MLCK(h); submitted item: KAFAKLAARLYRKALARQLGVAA [MMI-0400]
1
